The entries below are paired with their reported DC50.
measuredOn: IKZF1 (Homo sapiens, UniProt Q13422+Q96SW2)
Sequence (Q13422 whole entry, one chain of several): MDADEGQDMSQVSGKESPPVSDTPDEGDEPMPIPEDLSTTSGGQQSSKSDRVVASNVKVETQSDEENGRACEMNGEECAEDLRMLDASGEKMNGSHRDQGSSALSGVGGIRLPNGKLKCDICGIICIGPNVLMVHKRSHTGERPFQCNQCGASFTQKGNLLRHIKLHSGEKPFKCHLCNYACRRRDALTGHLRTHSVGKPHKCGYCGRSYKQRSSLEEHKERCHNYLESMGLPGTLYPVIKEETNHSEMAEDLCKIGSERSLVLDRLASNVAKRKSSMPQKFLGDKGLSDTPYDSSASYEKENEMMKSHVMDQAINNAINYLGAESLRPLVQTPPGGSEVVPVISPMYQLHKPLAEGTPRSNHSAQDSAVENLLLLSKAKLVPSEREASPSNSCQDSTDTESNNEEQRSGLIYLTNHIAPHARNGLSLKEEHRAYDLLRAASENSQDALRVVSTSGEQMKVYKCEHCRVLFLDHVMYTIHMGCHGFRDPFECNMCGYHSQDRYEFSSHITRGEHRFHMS
assayNotes: Prolabel quantification of IKZF1 protein levels in 293GT cells
Format: cell-based
assayContext: Prolabel assay, read-out: IKZF1 EC50

Recorded results for 10 molecules are shown here.
• O=C1CCC(N2Cc3cc(C4CCN(Cc5cc(F)ccc5F)CC4)ccc3C2=O)C(=O)N1 (stereo not drawn) = > 30 µM
• CC(=O)Nc1ccc(CN2CCC(c3ccc4c(c3)CN(C3CCC(=O)NC3=O)C4=O)CC2)cc1 (stereo not drawn) = > 30 µM
• O=C1CCC(N2Cc3cc(C4CCN(Cc5cnc[nH]5)CC4)ccc3C2=O)C(=O)N1 (stereo not drawn) = > 30 µM
• O=C1CCC(N2Cc3cc(C4CCN(Cc5cccc6ccccc56)CC4)ccc3C2=O)C(=O)N1 (stereo not drawn) = > 30 µM
• N#Cc1ccccc1CN1CCC(c2ccc3c(c2)CN(C2CCC(=O)NC2=O)C3=O)CC1 (stereo not drawn) = > 30 µM
• O=C1CCC(N2Cc3cc(C4CCN(Cc5ccc(C(F)F)cc5)CC4)ccc3C2=O)C(=O)N1 (stereo not drawn) = > 30 µM
• N#Cc1cccc(CN2CCC(c3ccc4c(c3)CN(C3CCC(=O)NC3=O)C4=O)CC2)c1 (stereo not drawn) = > 30 µM
• CCc1ccc(CN2CCC(c3ccc4c(c3)CN(C3CCC(=O)NC3=O)C4=O)CC2)cc1 (stereo not drawn) = > 30 µM
• O=C1CCC(N2Cc3cc(C4CCN(Cc5ccc6cc[nH]c6n5)CC4)ccc3C2=O)C(=O)N1 (stereo not drawn) = > 30 µM
• O=C1CCC(N2Cc3cc(C4CCN(Cc5ccc6[nH]c(=O)[nH]c6c5)CC4)ccc3C2=O)C(=O)N1 (stereo not drawn) = > 30 µM

Sample O=C1CCC(N2Cc3cc(C4CCN(Cc5cnn(-c6ccccc6)c5)CC4)ccc3C2=O)C(=O)N1 (stereo not drawn) — what was its DC50?
> 30 µM

Request: Cn1nc(CN2CCC(c3ccc4c(c3)CN(C3CCC(=O)NC3=O)C4=O)CC2)c2ccccc21 (stereo not drawn)
> 30 µM

Request: O=C1CCC(N2Cc3cc(C4CCN(Cc5ccc(OCc6ccc(F)cc6)cc5)CC4)ccc3C2=O)C(=O)N1 (stereo not drawn)
> 30 µM

Request: CN(C)S(=O)(=O)c1cccc(CN2CCC(c3ccc4c(c3)CN(C3CCC(=O)NC3=O)C4=O)CC2)c1 (stereo not drawn)
0.22 µM

Request: COC1CCN(c2ccc(CN3CCC(c4ccc5c(c4)CN(C4CCC(=O)NC4=O)C5=O)CC3)cc2)CC1 (stereo not drawn)
> 30 µM

Request: C[C@H]1CC(c2ccc3c(c2)CN(C2CCC(=O)NC2=O)C3=O)CCN1Cc1ccccc1 (stereo partly drawn)
> 50 µM

Request: Cn1cc(CN2CCC(c3ccc4c(c3)CN(C3CCC(=O)NC3=O)C4=O)CC2)cn1 (stereo not drawn)
> 30 µM

Request: O=C1CCC(N2Cc3cc(C4CCN(C(CO)c5ccccc5)CC4)ccc3C2=O)C(=O)N1 (single isomer, unassigned)
> 30 µM

Request: Cc1cn(C)c(CN2CCC(c3ccc4c(c3)CN(C3CCC(=O)NC3=O)C4=O)CC2)n1 (stereo not drawn)
> 30 µM

* * *

measuredOn: GSPT1 (Homo sapiens, UniProt P15170+Q96SW2)
Sequence (P15170 whole entry): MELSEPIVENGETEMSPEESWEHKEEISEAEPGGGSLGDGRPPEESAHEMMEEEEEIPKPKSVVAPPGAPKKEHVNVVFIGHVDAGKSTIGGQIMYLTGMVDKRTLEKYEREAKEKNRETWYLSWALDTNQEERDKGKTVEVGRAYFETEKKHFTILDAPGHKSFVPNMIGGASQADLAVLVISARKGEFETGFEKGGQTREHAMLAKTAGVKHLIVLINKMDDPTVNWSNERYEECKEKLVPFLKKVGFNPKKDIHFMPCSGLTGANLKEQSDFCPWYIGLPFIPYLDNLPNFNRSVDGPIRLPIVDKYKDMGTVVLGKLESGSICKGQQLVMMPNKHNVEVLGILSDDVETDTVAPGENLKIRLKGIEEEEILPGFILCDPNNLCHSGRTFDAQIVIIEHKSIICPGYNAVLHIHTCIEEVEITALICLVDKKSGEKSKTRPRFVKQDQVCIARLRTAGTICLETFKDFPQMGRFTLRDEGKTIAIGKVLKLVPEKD
Sequence (Q96SW2 whole entry): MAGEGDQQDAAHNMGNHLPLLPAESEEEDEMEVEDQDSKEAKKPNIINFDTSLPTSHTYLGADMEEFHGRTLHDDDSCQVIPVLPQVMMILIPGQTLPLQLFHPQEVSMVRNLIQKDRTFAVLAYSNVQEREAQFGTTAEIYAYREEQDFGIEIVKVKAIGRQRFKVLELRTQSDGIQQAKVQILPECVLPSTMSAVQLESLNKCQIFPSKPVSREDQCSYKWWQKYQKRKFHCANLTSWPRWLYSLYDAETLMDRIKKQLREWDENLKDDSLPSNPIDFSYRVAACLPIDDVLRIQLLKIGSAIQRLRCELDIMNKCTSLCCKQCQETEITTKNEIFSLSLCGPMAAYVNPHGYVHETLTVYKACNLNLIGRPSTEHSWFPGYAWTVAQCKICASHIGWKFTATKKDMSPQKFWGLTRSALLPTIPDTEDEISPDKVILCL
Sequence (Q16531 whole entry partner): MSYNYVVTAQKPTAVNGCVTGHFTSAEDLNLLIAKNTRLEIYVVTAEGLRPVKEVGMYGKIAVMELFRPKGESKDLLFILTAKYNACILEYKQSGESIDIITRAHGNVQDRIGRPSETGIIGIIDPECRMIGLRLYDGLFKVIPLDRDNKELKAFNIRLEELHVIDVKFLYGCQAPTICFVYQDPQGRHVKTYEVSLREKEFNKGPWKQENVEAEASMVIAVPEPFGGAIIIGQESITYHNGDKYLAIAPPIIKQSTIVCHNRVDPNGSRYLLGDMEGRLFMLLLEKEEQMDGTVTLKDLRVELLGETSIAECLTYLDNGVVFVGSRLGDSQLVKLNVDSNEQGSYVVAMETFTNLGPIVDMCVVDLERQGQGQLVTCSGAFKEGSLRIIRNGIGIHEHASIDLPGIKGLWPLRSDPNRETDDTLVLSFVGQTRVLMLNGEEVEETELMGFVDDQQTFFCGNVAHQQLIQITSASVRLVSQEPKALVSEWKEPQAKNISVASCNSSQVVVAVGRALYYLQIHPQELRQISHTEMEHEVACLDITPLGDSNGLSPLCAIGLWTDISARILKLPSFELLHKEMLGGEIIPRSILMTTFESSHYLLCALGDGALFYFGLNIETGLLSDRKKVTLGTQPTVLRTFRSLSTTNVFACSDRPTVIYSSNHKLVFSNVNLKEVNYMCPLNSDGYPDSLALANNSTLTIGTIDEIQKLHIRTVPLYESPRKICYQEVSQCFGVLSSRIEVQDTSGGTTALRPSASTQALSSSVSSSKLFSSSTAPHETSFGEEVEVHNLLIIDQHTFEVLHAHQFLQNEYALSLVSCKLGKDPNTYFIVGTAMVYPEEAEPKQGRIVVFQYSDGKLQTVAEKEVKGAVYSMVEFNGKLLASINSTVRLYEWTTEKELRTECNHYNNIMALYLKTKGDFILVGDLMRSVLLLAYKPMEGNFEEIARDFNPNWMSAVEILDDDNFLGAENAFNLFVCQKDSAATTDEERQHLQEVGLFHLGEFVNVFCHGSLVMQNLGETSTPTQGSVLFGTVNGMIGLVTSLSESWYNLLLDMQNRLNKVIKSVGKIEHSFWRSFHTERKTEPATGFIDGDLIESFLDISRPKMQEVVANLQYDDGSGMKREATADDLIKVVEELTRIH
assayNotes: Prolabel quantification of GSPT1 protein levels in 293GT cells
Assay type: cell-based
assayContext: Prolabel assay, read-out: GSPT1 EC50
The entries below are paired with their reported DC50.

Recorded results for 3 compounds are shown here.
- O=C1CCC(N2Cc3cc(C4CCN(Cc5ccc(OC(F)F)cc5)CC4)ccc3C2=O)C(=O)N1 (stereo not shown) [Compound I-77]: > 30 µM
- O=C1CCC(N2Cc3cc(C4CCN(Cc5ccc(C6CCCC6)cc5)CC4)ccc3C2=O)C(=O)N1 (stereo not shown) [Compound I-110]: > 30 µM
- NC(=O)c1ccc(CN2CCC(c3ccc4c(c3)CN(C3CCC(=O)NC3=O)C4=O)CC2)cc1 (stereo not shown) [Compound I-71]: > 30 µM

Sample Cc1cc(C)cc(CN2CCC(c3ccc4c(c3)CN(C3CCC(=O)NC3=O)C4=O)CC2)c1 (stereo not shown) [Compound I-159] — what was its DC50?
> 50 µM

* * *

measuredOn: IKZF2 (Homo sapiens, UniProt Q96SW2+Q9UKS7)
Sequence (Q9UKS7 whole entry): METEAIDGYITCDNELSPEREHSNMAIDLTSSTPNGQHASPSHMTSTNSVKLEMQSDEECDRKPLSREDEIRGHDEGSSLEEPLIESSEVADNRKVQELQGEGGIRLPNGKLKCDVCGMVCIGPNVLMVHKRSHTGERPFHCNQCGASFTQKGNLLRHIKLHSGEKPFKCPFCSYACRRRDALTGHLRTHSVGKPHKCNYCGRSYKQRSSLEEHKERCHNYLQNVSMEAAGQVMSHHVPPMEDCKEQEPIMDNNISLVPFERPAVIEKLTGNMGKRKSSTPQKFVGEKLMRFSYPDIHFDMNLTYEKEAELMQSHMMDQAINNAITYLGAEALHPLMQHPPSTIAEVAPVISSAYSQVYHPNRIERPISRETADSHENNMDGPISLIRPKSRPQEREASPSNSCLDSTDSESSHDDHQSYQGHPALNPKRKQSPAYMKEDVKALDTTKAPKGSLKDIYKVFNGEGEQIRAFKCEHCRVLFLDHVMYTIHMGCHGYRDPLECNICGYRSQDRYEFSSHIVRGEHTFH
Sequence (Q96SW2 whole entry): as the sequence (Q96SW2 whole entry) above
Sequence (Q16531 whole entry partner): as the sequence (Q16531 whole entry partner) above
assayNotes: Prolabel quantification of IKZF2 protein levels in 293GT cells
Format: cell-based
assayContext: Prolabel assay, 293GT cells; read-out: IKZF2 EC50
attributeMeasured: DC50 (µM)

* O=C1CCC(N2Cc3cc(C4CCN(Cc5ccc6[nH]c(=O)[nH]c6c5)CC4)ccc3C2=O)C(=O)N1 (stereo not shown) | 1.3
* O=C1CCC(N2Cc3cc(C4CCN(Cc5ccc(F)c(F)c5)CC4)ccc3C2=O)C(=O)N1 (stereo not shown) | 0.025

P = O=C1CCC(N2Cc3cc(C4CCN(Cc5cc(F)c(O)c(F)c5)CC4)ccc3C2=O)C(=O)N1 (stereo not shown)
Q = O=C1CCC(N2Cc3cc(C4CCN(Cc5cnc6ncccn56)CC4)ccc3C2=O)C(=O)N1 (stereo not shown)
R = NC(=O)c1nc(CN2CCC(c3ccc4c(c3)CN(C3CCC(=O)NC3=O)C4=O)CC2)no1 (stereo not shown)
S = Nc1nc(C(F)(F)F)c(CN2CCC(c3ccc4c(c3)CN(C3CCC(=O)NC3=O)C4=O)CC2)s1 (stereo not shown)
Put the compounds in ascending order of DC50. Output the labels ranked as instructed.
P, S, Q, R

* * *

measuredOn: IKZF2 (Homo sapiens, UniProt Q96SW2+Q9UKS7)
assayNotes: Prolabel quantification of IKZF2 protein levels in 293GT cells
Format: cell-based
assayContext: 24 h, 10 μM, 24 h, 293GT cells; read-out: IKZF2 % protein reduction at 10 μM, 24 h
attributeMeasured: inhibition at 10 µM (%)

• O=C1CCC(N2Cc3cc(C4CCN(Cc5ccc6c(c5)CCCC6)CC4)ccc3C2=O)C(=O)N1 (stereo not shown) = 50
• O=C1CCC(N2Cc3cc(C4CCN(CC5CCOCC5)CC4)ccc3C2=O)C(=O)N1 (stereo not shown) = 60
• O=C1CCC(N2Cc3cc(C4CCN(Cc5cccc6[nH]ncc56)CC4)ccc3C2=O)C(=O)N1 (stereo not shown) = 80
• O=C1CCC(N2Cc3cc(C4CCN(C(CF)c5ccccc5)CC4)ccc3C2=O)C(=O)N1 (stereo not shown) = 60

* * *

measuredOn: IKZF2 (Homo sapiens, UniProt Q96SW2+Q9UKS7)
assayNotes: Prolabel quantification of IKZF2 protein levels in 293GT cells
Format: cell-based
assayContext: Prolabel assay, 293GT cells; read-out: IKZF2 EC50
Procedure: The Prolabel system from DiscoverX was used to develop high-throughput and quantitative assays to measure changes in IKZF1, IKZF2 and GSPT1 protein levels in response to compounds. […] The complementary fragment of beta-galactosidase (from DiscoverX), is added to the prolabel tag to form an active beta galactosidase enzyme whose activity can be precisely measured. In this way, the levels of a fusion protein with the prolabel tag can be quantified in cell lysates. […]
attributeMeasured: DC50 (µM)

• O=C1CCC(N2Cc3cc(C4CCN(CC5CCC5)CC4)ccc3C2=O)C(=O)N1 (stereo not drawn) = 0.027
• O=C(O)Cc1ccc(CN2CCC(c3ccc4c(c3)CN(C3CCC(=O)NC3=O)C4=O)CC2)cc1 (stereo not drawn) = 0.25
• O=C1CCC(N2Cc3cc(C4CCN(Cc5cnc(N6CCCC6)nc5)CC4)ccc3C2=O)C(=O)N1 (stereo not drawn) = 0.016
• CC(C)Oc1cccc(CN2CCC(c3ccc4c(c3)CN(C3CCC(=O)NC3=O)C4=O)CC2)c1 (stereo not drawn) = 0.023

I = CN(C)S(=O)(=O)c1ccc(CN2CCC(c3ccc4c(c3)CN(C3CCC(=O)NC3=O)C4=O)CC2)cc1 (stereo not drawn)
II = NC(=O)c1cccc(CN2CCC(c3ccc4c(c3)CN(C3CCC(=O)NC3=O)C4=O)CC2)c1 (stereo not drawn)
III = O=C1CCC(N2Cc3cc(C4CCN(Cc5cnc[nH]5)CC4)ccc3C2=O)C(=O)N1 (stereo not drawn)
IV = O=C1CCC(N2Cc3cc(C4CCN(Cc5cccn6nccc56)CC4)ccc3C2=O)C(=O)N1 (stereo not drawn)
Put the compounds in ascending order of DC50. Output the labels ranked as instructed.
IV, I, II, III

I = Cc1ccc(CN2CCC(c3ccc4c(c3)CN(C3CCC(=O)NC3=O)C4=O)CC2)cc1 (stereo not drawn)
II = O=C1CCC(N2Cc3cc(C4CCN(Cc5ccc(OC(F)F)cc5)CC4)ccc3C2=O)C(=O)N1 (stereo not drawn)
Given I and given II , which shows the smaller recorded DC50? Kindly state the label of the option you pick.
II
(II: 0.007 µM, I: 0.016 µM)

A = O=C1CCC(N2Cc3cc(C4CCN(Cc5cccc(OC(F)(F)F)c5)CC4)ccc3C2=O)C(=O)N1 (stereo not drawn)
B = O=C1CCC(N2Cc3cc(C4CCN(Cc5ccc6cn[nH]c6c5)CC4)ccc3C2=O)C(=O)N1 (stereo not drawn)
Given A and given B , which shows the smaller recorded DC50? Kindly state the label of the option you pick.
B
(B: 0.009 µM, A: 0.02 µM)
